- Test system: umbrella sedge (Cyperus difformis)
- Protocol Notes: Test B flooded paddy test
- Assay type: in vivo
- Reported Conditions: Flood, 31 g ai/ha; scale 0 to 100 (0 no effect, 100 complete control)
Response field label takes criterion met when Sedge, Umbrella plant response rating is strictly below 40 and criterion not met in all other cases.

Q: Field: below-cutoff. Rule: recorded Sedge, Umbrella plant response rating strictly less than 40. Subject: COc1ccc(-n2c(-c3ccccc3)ncc(C(=O)C3=C(O)CCCC3=O)c2=O)c(OC)c1 [Compound 256]
A: criterion met

Q: Field: below-cutoff. Rule: recorded Sedge, Umbrella plant response rating strictly less than 40. Subject: COc1ccc(-n2c(-c3cccc(F)c3)ncc(C(=O)C3=C(O)CCCC3=O)c2=O)cc1 [Compound 203]
A: criterion met

Q: Field: below-cutoff. Rule: recorded Sedge, Umbrella plant response rating strictly less than 40. Subject: CCc1ccc(-n2c(-c3ccccc3)ncc(C(=O)C3=C(O)CCCC3=O)c2=O)cc1 [Compound 219]
A: criterion met

Q: Field: below-cutoff. Rule: recorded Sedge, Umbrella plant response rating strictly less than 40. Subject: CCCn1c(-c2ccco2)ncc(C(=O)C2=C(O)CCCC2=O)c1=O [Compound 110]
A: criterion met

Q: Field: below-cutoff. Rule: recorded Sedge, Umbrella plant response rating strictly less than 40. Subject: COc1ccc(-n2c(-c3ccccc3)ncc(C(=O)C3=C(O)CCCC3=O)c2=O)cc1OC [Compound 218]
A: criterion not met

Q: Field: below-cutoff. Rule: recorded Sedge, Umbrella plant response rating strictly less than 40. Subject: COCCn1c(-c2cccc(Cl)c2)ncc(C(=O)C2=C(O)CCCC2=O)c1=O [Compound 147]
A: criterion met

* * *

For each record, write down the corresponding Plant response rating, Ryegrass, Italian.
- System: Italian ryegrass (Lolium multiflorum)
- Protocol Notes: Test B pre-/postemergence plant response
- Assay type: in vivo
- Reported Conditions: Postemergence, 125 g ai/ha; visual rating after 13 to 15 days, scale 0 (no effect) to 100 (complete control)
- Source text: […] Treated plants and controls were maintained in a greenhouse for 13 to 15 days, after which time all treated plants were visually evaluated and compared to controls. […]
Lab note: record the figure alone, no unit after it.

Q: Read the entry Cc1ccccc1-n1c(-c2ccccc2)ncc(C(=O)C2=C(O)CCCC2=O)c1=O and write its reported Plant response rating, Ryegrass, Italian.
A: 5

Q: Read the entry O=C1CCCC(O)=C1C(=O)c1cnc(-c2cccc(Cl)c2)n(-c2ccc(Cl)cc2)c1=O and write its reported Plant response rating, Ryegrass, Italian.
A: 0

Q: Read the entry Cc1ccccc1-c1ncc(C(=O)C2=C(O)CCCC2=O)c(=O)n1-c1ccccc1 and write its reported Plant response rating, Ryegrass, Italian.
A: 5

Q: Read the entry O=C1CCCC(O)=C1C(=O)c1cnc(-c2ccccc2)n(CC2CCCO2)c1=O (centres unmarked) and write its reported Plant response rating, Ryegrass, Italian.
A: 70

Q: Read the entry CCCc1ncc(C(=O)C2=C(O)CCCC2=O)c(=O)n1-c1ccccc1C and write its reported Plant response rating, Ryegrass, Italian.
A: 60

* * *

- Tested on: bermudagrass (Cynodon dactylon)
- Protocol Notes: Test B pre-/postemergence plant response
- Type: in vivo
- Reported Conditions: Postemergence, 125 g ai/ha; scale 0 to 100 (0 no effect, 100 complete control)
- Excerpt: […] Treated plants and controls were maintained in a greenhouse for 13 to 15 days, after which time all treated plants were visually evaluated and compared to controls. […]
Recorded Endpoint: Plant response rating, Bermudagrass
Lab note: record the figure alone, no unit after it.

Q: Tell me its Plant response rating, Bermudagrass on bermudagrass (Cynodon dactylon): CCCn1c(-c2cc(F)cc(F)c2)ncc(C(=O)C2=C(O)CCCC2=O)c1=O [Compound 152]
A: 98

Q: Tell me its Plant response rating, Bermudagrass on bermudagrass (Cynodon dactylon): COCCn1c(-c2cccc(C)c2)ncc(C(=O)C2=C(O)CCCC2=O)c1=O [Compound 117]
A: 95

Q: Tell me its Plant response rating, Bermudagrass on bermudagrass (Cynodon dactylon): COCCn1c(-c2cccc(C)c2)ncc(C(=O)C2=C(O)C3CCC(C3)C2=O)c1=O (stereo not shown) [Compound 233]
A: 100

Q: Tell me its Plant response rating, Bermudagrass on bermudagrass (Cynodon dactylon): O=C1CCCC(O)=C1C(=O)c1cnc(-c2ccccc2)n(C2CCCC2)c1=O [Compound 131]
A: 85

All figures here come from patent US8952024B2.
